Each record here notes measured GI50.
System: M19-MEL
Assay: NCI tumour cell line growth inhibition, 48 h
The source made the active and inactive calls. Rule as the data show it: active = GI50 up to about 1.1 µM and inactive = higher.

>>> observed_result("COc1cc(/C=C2\\CCC(CN(C)C)C2=O)ccc1OC(=O)c1ccccc1 (stereo not given)")
"8.57 µM (inactive)"

Ask: Fill in the recorded GI50 for this compound, with M19-MEL as test system: O=C1C(O)=C(CC=C(Cl)Cl)C(=O)c2ccccc21
Result: 7.64 µM (inactive)

Ask: Fill in the recorded GI50 for this compound, with M19-MEL as test system: CCCCCCCCCCCCCCCC(=O)OCC1OC(n2cc(F)c(=O)[nH]c2=O)C(N)C(O)C1O (stereo not given)
Result: 18.7 µM (inactive)

Ask: Fill in the recorded GI50 for this compound, with M19-MEL as test system: Cn1c(=O)c(/N=N/c2c(=O)n(C)c(=O)n3c2[nH]c2ccccc23)c2[nH]c3ccccc3n2c1=O
Result: > 100 µM (inactive)

Ask: Fill in the recorded GI50 for this compound, with M19-MEL as test system: O=C(OCc1ccccc1C1CSCSC1)c1cc(C(=O)OCc2ccccc2C2CSCSC2)c(C(=O)OCc2ccccc2C2CSCSC2)cc1C(=O)OCc1ccccc1C1CSCSC1
Result: > 100 µM (inactive)

Ask: Fill in the recorded GI50 for this compound, with M19-MEL as test system: CC1(C)OC2CC3COC(=O)C3CC2O1 (stereo not given)
Result: > 100 µM (inactive)

Ask: Fill in the recorded GI50 for this compound, with M19-MEL as test system: O=C(NC(Cc1ccc(I)cc1)C(=O)O)c1ccc(Cl)cc1 (stereo not given)
Result: > 100 µM (inactive)

Ask: Fill in the recorded GI50 for this compound, with M19-MEL as test system: O=C(O)C1=C(CO)Oc2cc3c(cc2C1c1ccc2c(c1)OCO2)OCO3 (stereo not given)
Result: > 100 µM (inactive)

Ask: Fill in the recorded GI50 for this compound, with M19-MEL as test system: COc1cc(C(C)O)c[n+](CCC2CNc3ccccc32)c1 (stereo not given)
Result: > 100 µM (inactive)

Ask: Fill in the recorded GI50 for this compound, with M19-MEL as test system: CC(C)(C)c1ccccc1NS(=O)(=O)c1ccccc1
Result: > 100 µM (inactive)

---

System: UO-31
Experiment: NCI tumour cell line growth inhibition, 48 h
Activity calls are given as the source filed them. Cut-off read from the data, not from the text of the source: active = GI50 up to about 1.1 µM and inactive = higher.
Each record here notes measured GI50.

>>> observed_result("N#Cc1ccc(-c2ccc(Cl)cc2)n(C2OC(CO)C(O)C(O)C2O)c1=S (stereo not given)")
"> 100 µM (inactive)"
>>> observed_result("CC(C)[C@H](C)/C=C/[C@@H](C)C1CC[C@H]2[C@@]34C=C[C@]5(C[C@@H](O)CC[C@]5(C)[C@H]3CC[C@]12C)OO4 (stereo not given in full)")
"37.3 µM (inactive)"
>>> observed_result("NCCCNCc1c2ccccc2c(CNCCCN)c2ccccc12")
"37.8 µM (inactive)"
>>> observed_result("CS(=O)(=O)N1CC(CI)c2ccc(O)cc21 (stereo not given)")
"3.35 µM (inactive)"

Here is another molecule to look at.
Ask: Recorded GI50 for C#CC(O)/C=C/C(O)CCCC(O)CC#CC(O)C#CCCCCC(O)/C=C/CCCCCC(=O)CCCCCCCCCCCCCC(O)C(O)C#CC(=O)O (stereo not given) , please?
Result: 11.5 µM (inactive)
